test.target: ASIC1a (Homo sapiens)
Sequence (P78348 whole entry): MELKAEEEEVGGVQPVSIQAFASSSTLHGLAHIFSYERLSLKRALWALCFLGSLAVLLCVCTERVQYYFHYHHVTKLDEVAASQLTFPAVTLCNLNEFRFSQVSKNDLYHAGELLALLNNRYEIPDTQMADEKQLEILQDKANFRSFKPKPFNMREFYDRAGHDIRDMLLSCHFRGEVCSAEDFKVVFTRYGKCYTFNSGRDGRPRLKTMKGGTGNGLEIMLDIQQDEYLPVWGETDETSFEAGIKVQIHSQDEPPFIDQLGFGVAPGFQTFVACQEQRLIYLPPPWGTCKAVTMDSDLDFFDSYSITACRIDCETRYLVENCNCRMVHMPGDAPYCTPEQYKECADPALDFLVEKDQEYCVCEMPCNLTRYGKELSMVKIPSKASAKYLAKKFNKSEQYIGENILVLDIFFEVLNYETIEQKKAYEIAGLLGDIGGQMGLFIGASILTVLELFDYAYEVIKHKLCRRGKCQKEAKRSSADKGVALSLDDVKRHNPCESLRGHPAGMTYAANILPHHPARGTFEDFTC
assay.summary: Two-electrode voltage clamp of acid-induced currents in Xenopus laevis oocytes
Format: cell-based
Set-up: expressed in transfected cells; host or cells: Xenopus laevis oocytes, nuclear microinjection of an expression vector such as pCDNA3
measurement.context: 50 μM, Xenopus oocytes; read-out: % inh. at 50 μM (Xo)
Exercise: state measured inhibition at 50 µM for each of the compounds provided.

Worked cases, inhibition at 50 µM given:
CCN1CCc2c(-c3ccccc3)cc(Br)c(N)c2C1 > 40%
CCN1CCc2c(-c3ccccc3)cc(C#N)c(NC(=O)C(=O)OC)c2C1 < 20%

// next entry
Problem: Report inhibition at 50 µM for N#Cc1cc(-c2ccccc2)c2ccncc2c1N please.
Result: 20 to 30%
